The molecules listed here are annotated with their absorption maximum.
# Protocol text: solvent given as SMILES
# Condition summary: in C1CCOC1
Observed property: absorption maximum (nm)

INSERT INTO measurements (smiles_representation, observed_property, numeric_value) VALUES
  ('CCC(CC)COC1=CC2=C3c4cc(OCC(CC)CC)c(-c5ccccc5)n4[B-](F)(F)[n+]4c3n(c3cc(C(C)(C)C)ccc34)[B-](F)(F)[N+]2=C1c1ccccc1', 'absorption maximum', 702),
  ('CCOC(=O)C(C(=O)OCC)C1=[N+]2C(=C(c3ccc(C)cc3)c3ccc(C(C(=O)OCC)C(=O)OCC)n3[B-]2(F)F)C=C1', 'absorption maximum', 512),
  ('CC(C)(C)c1ccc2c(c1)sc1[n+]2[B-](F)(F)n2c(c3cccc4c(Br)ccc2c43)=N1', 'absorption maximum', 494),
  ('COc1ccc2c(c1)CCc1c-2nc(N)c(C#N)c1-c1ccc(Br)cc1', 'absorption maximum', 362),
  ('N#Cc1c(N2CCCCC2)cc(-c2ccccc2)c2c1-c1ccccc1C2', 'absorption maximum', 360),
  ('CC1=[N+]2C(=C(c3ccc(N4CCOCC4)cc3)c3ccc(C)n3[B-]2(F)F)C=C1', 'absorption maximum', 507),
  ('CCn1c2ccccc2c2cc(C#Cc3cc(C#Cc4ccc5c(c4)c4ccccc4n5CC)nc(C#N)n3)ccc21', 'absorption maximum', 410),
  ('O=C1NC(=O)c2c1c1c3ccccc3[nH]c1c1[nH]c3ccccc3c21', 'absorption maximum', 400);
